B1: DFFB (parent)
chain: TLVEAIKEQDGREVDWEYFYGLLF

- Variants of: B1
- Assay Overview: protein stability index of a GFP-peptide fusion (GPS, HEK-293T) (PSI 1-6); higher = more stable;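 also: lentivirally expressed fusions sorted by FACS into six bins by GFP to DsRed ratio, PSI derived from sequencing read proportions per bin multiplied by bin number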
- Experimental Context: c terminus: a fixed tail appended
Readout Label: protein stability index
I'd appreciate a reply containing only the number, no unit.

| Residue Change | Assay Result |
| --- | --- |
| L22C | 2.04 |

Note protein stability index for the variant shown: V3F
2

Note protein stability index for the variant shown: G11H
2.04
